Overview of reported protein stability index across a group of variants:
B1: ZNF8 (parent)
chain: RTHTGEKPYTCSVCGKSFSRTTCL

Variants of: B1
assayComment: protein stability index of a GFP-peptide fusion (GPS, HEK-293T) (PSI 1-6); higher = more stable;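 further: lentivirally expressed fusions sorted by FACS into six bins by GFP to DsRed ratio, PSI derived from sequencing read proportions per bin multiplied by bin number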
details: c terminus: a fixed tail appended

{"mutationAnnotation": "T10H", "protein stability index": 2.75}
{"mutationAnnotation": "R1D", "protein stability index": 2.85}
{"mutationAnnotation": "S12N", "protein stability index": 2.24}
{"mutationAnnotation": "K7E", "protein stability index": 2.36}
{"mutationAnnotation": "S12Q", "protein stability index": 2.33}
{"mutationAnnotation": "T2E", "protein stability index": 2.85}
{"mutationAnnotation": "T2W", "protein stability index": 2.2}
{"mutationAnnotation": "S12E", "protein stability index": 2.72}
{"mutationAnnotation": "L24W", "protein stability index": 2.8}
{"mutationAnnotation": "T21I", "protein stability index": 2.15}
{"mutationAnnotation": "S17D", "protein stability index": 2.55}
{"mutationAnnotation": "T2V", "protein stability index": 2.55}
{"mutationAnnotation": "T22G", "protein stability index": 2.1}
{"mutationAnnotation": "V13I", "protein stability index": 2.09}
{"mutationAnnotation": "T2H", "protein stability index": 2.52}
{"mutationAnnotation": "T21A", "protein stability index": 2.7}
{"mutationAnnotation": "L24P", "protein stability index": 3.17}
{"mutationAnnotation": "T2N", "protein stability index": 2.49}
{"mutationAnnotation": "R1A", "protein stability index": 2.43}
{"mutationAnnotation": "K7T", "protein stability index": 2.49}
{"mutationAnnotation": "Y9K", "protein stability index": 2.08}
{"mutationAnnotation": "C23R", "protein stability index": 1.84}
{"mutationAnnotation": "S12I", "protein stability index": 2.11}
{"mutationAnnotation": "T10Q", "protein stability index": 2.6}
{"mutationAnnotation": "R1I", "protein stability index": 2.59}
{"mutationAnnotation": "G15K", "protein stability index": 2.25}
{"mutationAnnotation": "C11W", "protein stability index": 1.82}
{"mutationAnnotation": "C23A", "protein stability index": 2.21}
{"mutationAnnotation": "H3Q", "protein stability index": 2.2}
{"mutationAnnotation": "R20D", "protein stability index": 3.46}
{"mutationAnnotation": "F18D", "protein stability index": 2.92}
{"mutationAnnotation": "R1M", "protein stability index": 2.61}
{"mutationAnnotation": "T4E", "protein stability index": 3.43}
{"mutationAnnotation": "L24T", "protein stability index": 3.08}
{"mutationAnnotation": "S19K", "protein stability index": 2.45}
{"mutationAnnotation": "S17H", "protein stability index": 2.69}
{"mutationAnnotation": "V13D", "protein stability index": 2.46}
{"mutationAnnotation": "E6C", "protein stability index": 2.28}
{"mutationAnnotation": "Y9R", "protein stability index": 2.29}
{"mutationAnnotation": "C14Y", "protein stability index": 2.06}
{"mutationAnnotation": "R1T", "protein stability index": 3.04}
{"mutationAnnotation": "T21P", "protein stability index": 2.58}
{"mutationAnnotation": "T10A", "protein stability index": 2.06}
{"mutationAnnotation": "Y9A", "protein stability index": 2.3}
{"mutationAnnotation": "T2L", "protein stability index": 2.1}
{"mutationAnnotation": "P8Y", "protein stability index": 2.95}
{"mutationAnnotation": "Y9P", "protein stability index": 2.4}
{"mutationAnnotation": "G15V", "protein stability index": 1.73}
{"mutationAnnotation": "R20G", "protein stability index": 3.17}
{"mutationAnnotation": "K16R", "protein stability index": 2.45}
{"mutationAnnotation": "K16T", "protein stability index": 1.94}
{"mutationAnnotation": "S12F", "protein stability index": 2.05}
{"mutationAnnotation": "K16F", "protein stability index": 1.77}
{"mutationAnnotation": "T21K", "protein stability index": 2.4}
{"mutationAnnotation": "K7W", "protein stability index": 2.31}
{"mutationAnnotation": "T4C", "protein stability index": 2.32}
{"mutationAnnotation": "T10D", "protein stability index": 2.43}
{"mutationAnnotation": "K16W", "protein stability index": 1.84}
{"mutationAnnotation": "E6A", "protein stability index": 2.31}
{"mutationAnnotation": "T22A", "protein stability index": 2.56}
{"mutationAnnotation": "T21Y", "protein stability index": 2.32}
{"mutationAnnotation": "C11Y", "protein stability index": 1.86}
{"mutationAnnotation": "P8I", "protein stability index": 3.05}
{"mutationAnnotation": "S17F", "protein stability index": 1.48}
{"mutationAnnotation": "S17L", "protein stability index": 2.34}
{"mutationAnnotation": "G15I", "protein stability index": 1.46}
{"mutationAnnotation": "G5Y", "protein stability index": 2.15}
{"mutationAnnotation": "F18M", "protein stability index": 1.89}
{"mutationAnnotation": "T2R", "protein stability index": 2.19}
{"mutationAnnotation": "K16C", "protein stability index": 2.16}
{"mutationAnnotation": "C14I", "protein stability index": 2.34}
{"mutationAnnotation": "F18L", "protein stability index": 3.4}
{"mutationAnnotation": "C11K", "protein stability index": 2.25}
{"mutationAnnotation": "E6R", "protein stability index": 1.92}
{"mutationAnnotation": "T2P", "protein stability index": 2.2}
{"mutationAnnotation": "K16Y", "protein stability index": 1.87}
{"mutationAnnotation": "V13T", "protein stability index": 1.89}
{"mutationAnnotation": "V13N", "protein stability index": 2.26}
{"mutationAnnotation": "K7C", "protein stability index": 2.72}
{"mutationAnnotation": "P8M", "protein stability index": 2.62}
{"mutationAnnotation": "H3Y", "protein stability index": 2.27}
{"mutationAnnotation": "T22Y", "protein stability index": 1.98}
{"mutationAnnotation": "C11V", "protein stability index": 2.24}
{"mutationAnnotation": "S17N", "protein stability index": 2.36}
{"mutationAnnotation": "S12C", "protein stability index": 2.13}
{"mutationAnnotation": "S19E", "protein stability index": 2.67}
{"mutationAnnotation": "V13F", "protein stability index": 2.48}
{"mutationAnnotation": "T2D", "protein stability index": 2.93}
{"mutationAnnotation": "G5M", "protein stability index": 2.48}
{"mutationAnnotation": "S19A", "protein stability index": 1.36}
{"mutationAnnotation": "F18I", "protein stability index": 1.54}
